Where these numbers come from: the array DNA melting data of Ke et al. (doi:10.1101/2024.01.08.574731)

- experimentalDetails: folding enthalpy; higher = less favourable; fluorescence melt of hairpins on a sequencing array, two-state fit
- cond: sodium 0.088 M
folding enthalpy reference
Don't forget the unit after the number, please.

Check out these entries, answers already filled in.
1. GAGTAAGGAAACTTACCC (.(((((....))))).); -14.6 kcal/mol
2. GCACAACGAAAGTTCTGC (((.(((....))).))); -26.1 kcal/mol
3. GATCATCTCCATGATC ((((((....)))))); -32.9 kcal/mol
4. GTGACCGGAAACGACCAC (((..((....))..))); -21.2 kcal/mol
5. GTGTCACGAAAGTGGCAC (((.(((....))).))); -37.1 kcal/mol

Pending sequence:
[ask] Quick check: folding enthalpy of GGTATGCGAAAGCAAACC (((.(((....))).))) ?
[reply] -30.2 kcal/mol

* * *

- experimentalDetails: folding enthalpy; higher = less favourable; fluorescence melt of hairpins on a sequencing array, two-state fit
- cond: sodium 0.088 M
Label scheme for folding enthalpy: lower than -30 kcal/mol is Not satisfied, -30 kcal/mol and above is Satisfied.

Previously resolved entries follow.
1. GCTGACCGAAAGGTAAGC (((.(((....))).))); Not satisfied
2. GCGGCCCCCCGC ((((....)))); Satisfied

[ask] Dear colleague, could you confirm whether GTGCGGGGAAACTCGCGC (.(((.(....).))).) has folding enthalpy at or above -30 kcal/mol?
[reply] Satisfied

[ask] Could you please find out whether GAGCTGCGAAAGCAACTC (((.(((....))).))) has folding enthalpy that meets -30 kcal/mol or exceeds it?
[reply] Not satisfied

[ask] Is it the case that GCGGGTGGAAACATCCGC ((((.((....)).)))) has folding enthalpy reaching or exceeding -30 kcal/mol?
[reply] Not satisfied

[ask] Hi, just wondering whether GCATTCGGAAACGAACGC ((.((((....)))).)) shows folding enthalpy of -30 kcal/mol or higher.
[reply] Not satisfied

* * *

- experimentalDetails: melting temperature; fluorescence melt of hairpins on a sequencing array, two-state fit, raised by 9.35 °C to match UV melts
- cond: sodium 0.088 M
# if value of Tm reaches 50 °C, tag 1; if it stays below, tag 0

1. GATCTATCACTAGATC ((((((....)))))); 0
2. GTACACGAAAGTGACTAC ((((((....)))..))); 0
3. GTTAACGAAAGTTGAAAC ((((((....)))..))); 0
4. GTCATTCGAAAGAAAGAC (((.(((....))).))); 0

[ask] Hi team, for GCAGCAGGAAACTGCTAC (.(((((....))))).) , is the recorded Tm at or above 50 °C?
[reply] 0

[ask] Is Tm for GTTGGAGAAATCCAAC ((((((....)))))) at or above 50 °C?
[reply] 1

[ask] Exam item: decide whether the reported Tm for GGGCTACCGAAAGGTCCC (((..(((....)))))) is at least 50 °C.
[reply] 0

* * *

- experimentalDetails: folding enthalpy; higher = less favourable; fluorescence melt of hairpins on a sequencing array, two-state fit
- cond: sodium 0.088 M
endpointLabel: folding enthalpy (kcal/mol)
Quick reminder: number only, in kcal/mol, skip the unit.

The cases that follow already have their folding enthalpy on record.
1) GCACTGCGAAAGCCTTGC (((..((....))..))); -21.9
2) GGTTGCGGAAACGCAGCC ((.((((....)))).)); -39.2
3) GCGAGTAGTCGC ((((....)))); -19.9
4) GCACACCGAAAGGTCTGC (((.(((....))).))); -26.5
5) CGAACCGGAAACGGTCG (((.(((....)))))); -23

[ask] // query folding enthalpy value for entry CGCTGCGGAAACGCTGCG (((.(((....))).)))
[reply] -30.7

[ask] folding enthalpy for GCGAAGCGAAAGCTCGC (((.(((....)))))) ?
[reply] -24.3

* * *

- experimentalDetails: folding enthalpy; higher = less favourable; fluorescence melt of hairpins on a sequencing array, two-state fit
- cond: sodium 0.088 M
Reported values of folding enthalpy for individual entries
Kindly answer with a numeric value in kcal/mol, unit omitted.

Solved entries (count: 3):
1) GATCTAAAATAGATC ((((((...)))))); -17.1
2) GCATCCGAAAGGACGTGC ((((((....)))..))); -19.4
3) GAGGGCGGAAACACCCCC (.(((.(....).))).); -16.4

Read the next record carefully.
[ask] # lookup: folding enthalpy of GATCTCTGCGAGATC ((((((...))))))
[reply] -19.3

* * *

Recorded folding enthalpy values for a group of sequences are listed next.
- experimentalDetails: folding enthalpy; higher = less favourable; fluorescence melt of hairpins on a sequencing array, two-state fit
- cond: sodium 0.088 M
Provide the reading as a plain figure in kcal/mol.

Examples with their reported folding enthalpy follow.
1) GCCCTGCGAAAGCTAGGC (((..((....))..))); -20.3
2) GTAGGCGGAAACGCCTGC (.(((((....))))).); -18.6
3) GTGGTGGGAAACCATCGC (.(.(((....))).).); -24.9
4) GCATTTGAAAAAATGC ((((((....)))))); -30.9
5) GATCTGTATTCAGATC ((((((....)))))); -36.3

[ask] What value of folding enthalpy has been reported for the following sequence? GACCGCGAAAGCGATGTC ((((((....)))..)))
[reply] -14.9

[ask] Request the reported folding enthalpy associated with GCGAACCGAAAGGTCCGC (((.(((....))).)))
[reply] -44.5

[ask] Given GGAACCGAAAGGTATCC ((((((....))).))) , state its recorded folding enthalpy.
[reply] -18.2

[ask] If you can, please state the reported folding enthalpy value of GCCACGCGAAAGCGTAGC ((.((((....)))).)) .
[reply] -16.9

[ask] Could you tell me which folding enthalpy is on file for GGAGTAGGAAACTACCCC ((.((((....)))).)) ?
[reply] -24.4

[ask] Entry GGGCTACCGAAAGGTCCC (((..(((....)))))) has what folding enthalpy?
[reply] -18.8

[ask] Record request: folding enthalpy value, item GATCCGCCCTCGGATC ((((((....))))))
[reply] -40.6

[ask] So what does the record say about folding enthalpy for GTTCCCGAAAGGGAAAC ((((((....))).))) ?
[reply] -12.6

[ask] Using the record for GCTTAGGGAAACCTGAGC (((.(((....))).))) , report its folding enthalpy.
[reply] -32.8

[ask] Consider the sequence shown here: GACATACCGAAAGGTGTC (((..(((....)))))) What is its recorded folding enthalpy?
[reply] -18.2

[ask] Requested field: folding enthalpy. Item: GGCCTCGGAAACGGGGCC ((((.((....)).))))
[reply] -35.3

[ask] What value of folding enthalpy has been recorded for this entry: GGCTCCGAAAGGAGCGCC ((((((....)))..)))
[reply] -6.52

[ask] What value of measured folding enthalpy is listed for GCGAGTTCTCGC ((((....)))) ?
[reply] -25.6

[ask] So what's the measured folding enthalpy for this one? GCTGGGCGAAAGCCGTGC ((..(((....)))..))
[reply] -18.2

[ask] State the recorded folding enthalpy for this entry: GTTGTTGGAAACAATGAC ((..(((....)))..))
[reply] -13.9

* * *

- experimentalDetails: folding enthalpy; higher = less favourable; fluorescence melt of hairpins on a sequencing array, two-state fit
- cond: sodium 0.088 M
endpointLabel: folding enthalpy

Guide cases for folding enthalpy, answers given:
1. GATCATCAGTATGATC ((((((....)))))); -29.4 kcal/mol
2. GATTAGGAAACTAATC ((((((....)))))); -30.5 kcal/mol

[ask] Can you share its folding enthalpy? I mean this sequence: GTCTCAGGAAACCGAGAC (((((.(....).)))))
[reply] -30.8 kcal/mol

* * *

- experimentalDetails: folding enthalpy; higher = less favourable; fluorescence melt of hairpins on a sequencing array, two-state fit
- cond: sodium 0.088 M
Cut-off -20 kcal/mol on folding enthalpy, inclusive. At or above means 1.0; below means 0.0.

1. GCCAATTCGAAAGAAGGC (((..(((....)))))); 0.0
2. GAGTGCGAAAGCAAACTC ((((((....)))..))); 0.0
3. CGGGCGGAAACGCGTCCG ((((((....)))..))); 0.0
4. GTGACGCGAAAGCGCAC (((.(((....)))))); 1.0
5. GTAGGGCGAAAGCCATAC (((.(((....))).))); 0.0

[ask] Does the sequence GTCCACGGAAACATGGAC (((((.(....).))))) have recorded folding enthalpy that is -20 kcal/mol or more?
[reply] 0.0

[ask] Does folding enthalpy meet or surpass -20 kcal/mol for GCGGTGCGAAAGCCCAGC ((.(.((....)).).)) ?
[reply] 0.0

[ask] Does GATCGTGGGCACGATC ((((((....)))))) have a reported folding enthalpy of at least -20 kcal/mol?
[reply] 0.0

[ask] In plain terms: is recorded folding enthalpy at least -20 kcal/mol for GCACCACGAAAGTGTGC (((.(((....)))))) ?
[reply] 0.0

[ask] Does folding enthalpy meet or surpass -20 kcal/mol for GCGATAGCGAAAGCTCGC (((..(((....)))))) ?
[reply] 1.0
